Origin of measurements: ChEMBL document CHEMBL4819020

system: MGC-803; assay: Antiproliferative activity against human MGC-803 cells assessed as inhibition of cell proliferation measured after 72 hrs by MTT assay; type: functional, cell-based; conditions: MGC-803, 72 h
Quantity measured: IC50

# Compound, Quantity measured, Measured result
data = [
    ("Cc1cc(Nc2cc(-c3cccs3)[nH]n2)n2nc(SCc3ccc(Br)cc3)nc2n1", "IC50", "3.77 µM"),
    ("Cc1cc(Nc2cc(-c3ccccc3)[nH]n2)n2nc(SCCCc3ccccc3)nc2n1", "IC50", "6.51 µM"),
    ("Cc1cc(Nc2ccn(Cc3nc(C)c4ccccc4n3)n2)n2nc(SCc3ccc(Br)cc3)nc2n1", "IC50", "0.96 µM"),
    ("COc1ccc(CSc2nc3nc(C)cc(Nc4cc(-c5ccccc5)[nH]n4)n3n2)cc1", "IC50", "3.17 µM"),
    ("Cc1cc(Nc2cc(-c3ccccc3)[nH]n2)n2nc(SCC(=O)c3ccccc3)nc2n1", "IC50", "2.58 µM"),
    ("Cc1cc(Nc2cc(-c3ccccc3)[nH]n2)n2nc(SCC3CC3)nc2n1", "IC50", "16.1 µM"),
    ("Cc1cc(Nc2cc(-c3ccccc3)[nH]n2)n2nc(SCc3cccc4ccccc34)nc2n1", "IC50", "3.12 µM"),
    ("Cc1cc(Nc2cc(-c3ccccc3)[nH]n2)n2nc(SCc3ccc(Br)cc3)nc2n1", "IC50", "1.11 µM"),
    ("Cc1nc2nc(SCc3ccc(Cl)cc3)nn2c(Nc2cc(-c3ccccc3)[nH]n2)c1C", "IC50", "9.05 µM"),
    ("Cc1ccc(Cn2ccc(Nc3cc(C)nc4nc(SCc5ccc(Br)cc5)nn34)n2)cc1", "IC50", "7.42 µM"),
    ("Cc1cc(Nc2ccn(Cc3ccc(C(F)(F)F)cc3)n2)n2nc(SCc3ccc(Br)cc3)nc2n1", "IC50", "2.59 µM"),
    ("Cc1cc(Nc2cc(-c3ccccc3)[nH]n2)n2nc(SCc3cc(=O)oc4c3ccc3ccccc34)nc2n1", "IC50", "2.07 µM"),
    ("C#CCSc1nc2nc(C)cc(Nc3cc(-c4ccccc4)[nH]n3)n2n1", "IC50", "13.4 µM"),
    ("Cc1cc(Nc2ccn(Cc3ccccc3)n2)n2nc(SCc3ccc(Br)cc3)nc2n1", "IC50", "4.72 µM"),
    ("Cc1cc(Nc2ccn(Cc3csc4ccc(Cl)cc34)n2)n2nc(SCc3ccc(Br)cc3)nc2n1", "IC50", "1.57 µM"),
    ("Cc1cc(Nc2cc(-c3ccccc3)[nH]n2)n2nc(SCc3ccc(C(F)(F)F)cc3)nc2n1", "IC50", "3.52 µM"),
    ("Cc1cc(Nc2cc(-c3ccccc3)[nH]n2)n2nc(SCc3ccc(F)cc3)nc2n1", "IC50", "3.27 µM"),
    ("Cc1cc(Nc2ccn(Cc3ccc(F)cc3)n2)n2nc(SCc3ccc(Br)cc3)nc2n1", "IC50", "3.07 µM"),
    ("COc1ccc(Cn2ccc(Nc3cc(C)nc4nc(SCc5ccc(Br)cc5)nn34)n2)cc1", "IC50", "12.6 µM"),
    ("Cc1cc(Nc2cc(-c3ccccc3)[nH]n2)n2nc(SCc3c(Cl)cccc3Cl)nc2n1", "IC50", "5.28 µM"),
    ("Cc1cc(Nc2cc(-c3ccccc3)[nH]n2)n2nc(SCc3nc4ccccc4[nH]3)nc2n1", "IC50", "1.79 µM"),
    ("CCCSc1nc2nc(C)cc(Nc3cc(-c4ccccc4)[nH]n3)n2n1", "IC50", "12.6 µM"),
    ("Cc1cc(Nc2cc(-c3ccccc3)[nH]n2)n2nc(SCc3ccc(Cl)cc3)nc2n1", "IC50", "3.95 µM"),
    ("Cc1cc(Nc2cc(-c3ccccc3)[nH]n2)n2nc(SCc3cccc(Br)c3)nc2n1", "IC50", "4.82 µM"),
    ("Cc1cc(Nc2cc(-c3ccccc3)[nH]n2)n2nc(SCCc3ccccc3)nc2n1", "IC50", "5.62 µM"),
    ("Cc1cc(Nc2cc(-c3ccccc3)[nH]n2)n2nc(SCC3CCCCC3)nc2n1", "IC50", "12.6 µM"),
    ("Cc1cc(Nc2cc(-c3ccccc3)[nH]n2)n2ncnc2n1", "IC50", "21.7 µM"),
    ("Cc1cc(Nc2cc(-c3ccccc3)[nH]n2)n2nc(SCc3ccccc3Br)nc2n1", "IC50", "3.65 µM"),
]
